Data provenance: patent US20240261417A1

Target: SOS1 protein (Homo sapiens, UniProt Q07889)
Sequence (Q07889 1-1333): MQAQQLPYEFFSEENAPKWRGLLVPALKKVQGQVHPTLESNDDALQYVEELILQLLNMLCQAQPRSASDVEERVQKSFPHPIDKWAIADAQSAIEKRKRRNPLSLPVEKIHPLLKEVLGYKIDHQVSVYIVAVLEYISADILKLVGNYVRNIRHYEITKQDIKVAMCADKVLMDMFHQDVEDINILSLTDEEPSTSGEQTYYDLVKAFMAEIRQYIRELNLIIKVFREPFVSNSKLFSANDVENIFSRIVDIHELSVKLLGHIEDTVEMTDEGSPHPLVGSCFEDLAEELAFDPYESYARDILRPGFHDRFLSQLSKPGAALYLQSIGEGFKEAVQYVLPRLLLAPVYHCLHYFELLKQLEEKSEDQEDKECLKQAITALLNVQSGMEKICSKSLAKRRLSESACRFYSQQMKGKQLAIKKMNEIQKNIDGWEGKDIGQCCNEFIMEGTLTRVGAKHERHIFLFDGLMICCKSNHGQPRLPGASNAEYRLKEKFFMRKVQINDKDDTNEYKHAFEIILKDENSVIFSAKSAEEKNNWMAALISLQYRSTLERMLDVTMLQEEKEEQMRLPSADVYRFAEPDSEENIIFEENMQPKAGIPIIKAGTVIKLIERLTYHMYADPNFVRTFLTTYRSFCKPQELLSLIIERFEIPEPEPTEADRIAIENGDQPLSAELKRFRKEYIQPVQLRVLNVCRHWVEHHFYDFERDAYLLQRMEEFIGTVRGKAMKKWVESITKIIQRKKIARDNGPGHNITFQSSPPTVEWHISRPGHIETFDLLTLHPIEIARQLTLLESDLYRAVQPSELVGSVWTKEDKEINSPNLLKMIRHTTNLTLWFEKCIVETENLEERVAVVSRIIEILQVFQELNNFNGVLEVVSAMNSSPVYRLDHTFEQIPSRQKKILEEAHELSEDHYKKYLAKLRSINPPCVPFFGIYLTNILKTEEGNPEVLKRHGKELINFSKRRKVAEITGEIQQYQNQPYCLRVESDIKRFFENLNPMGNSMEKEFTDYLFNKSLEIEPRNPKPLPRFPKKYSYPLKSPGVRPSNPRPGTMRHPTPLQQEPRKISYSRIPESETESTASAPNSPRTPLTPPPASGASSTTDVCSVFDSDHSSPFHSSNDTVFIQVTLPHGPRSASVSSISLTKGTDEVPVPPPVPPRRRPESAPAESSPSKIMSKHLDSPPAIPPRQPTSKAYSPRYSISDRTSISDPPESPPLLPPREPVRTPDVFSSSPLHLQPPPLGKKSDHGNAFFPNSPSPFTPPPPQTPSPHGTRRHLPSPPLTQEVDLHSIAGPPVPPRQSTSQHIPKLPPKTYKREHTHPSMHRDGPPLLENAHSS
Test: SOS1 degradation assay (Western blot), SW-620 cells
Assay type: cell-based
Design: host or cells: SW-620 (human cancer cell lines)
Conditions: 24 h, read-out: SW620 (G12V) DC50
assay_readout: DC50

Field: example entries. Status: answers known.
{"compound": "CNCc1ccccc1-c1csc([C@@H](C)Nc2nc(C)nc3cc(OC)c([C@H]4CC[C@H](C(=O)N5CCN(CC6CCC7(CC6)CCN(C(=O)c6ccc(OC)c(N8CCC(=O)NC8=O)c6)CC7)CC5)CC4)cc23)c1 [Example 73]", "DC50": "< 50 nM"}
{"compound": "COc1cc2nc(C)nc(N[C@H](C)c3cccc4c3CCS4(=O)=O)c2cc1[C@H]1CC[C@H](C(=O)N2CCN(CC3CCC4(CC3)CCN(C(=O)c3ccc(Cl)c(N5CCC(=O)NC5=O)c3)CC4)CC2)CC1 [Example 10]", "DC50": "< 50 nM"}

Now for another entry.
Incoming: Look up and report measured DC50 (SOS1 protein (Homo sapiens, UniProt Q07889)) for the following compound: COc1cc2nc(C)nc(N[C@H](C)c3cc(N)cc(C(F)(F)F)c3)c2cc1[C@H]1CC[C@H](C(=O)N2CCN(CCOCC3CCN(C(=O)c4ccc(Cl)c(N5CCC(=O)NC5=O)c4)CC3)CC2)CC1 [Example 33]
Outgoing: < 50 nM
